Numbers sourced from patent US9169254B2.

# TARGET: UniProt Q03431
# EXPERIMENTAL_DETAILS: In vitro cAMP signal activity in HKRK-B7 cells (LLC-PK1 cells overexpressing the human PTH1 receptor)
# Type: cell-based
# RECORDED_CONDITIONS: HKRK-B7 cells; compound at 1×10^−3 M; cAMP produced as percentage of that produced by hPTH(1-34) at 100 nM
Would you please tag the item YES when its cAMP production activity (%) is 70% or above, and NO when it is below?

>  <COMPOUND>
CC(=O)N(CCOCCF)c1ccc(/C=C/S(=O)(=O)N2CCC3(CC2)N=C(C2CCC(CCC(F)(F)F)CC2)NC3=O)c(C)c1 (stereo not drawn)

>  <TARGET>
UniProt Q03431

>  <ASSIGNED_CATEGORY>
YES

$$$$
>  <COMPOUND>
CCCC[C@H]1CC[C@H](C2=NC3(CCN(S(=O)(=O)/C=C/c4c(C)cc(N(CC5(C)COC5)C(C)=O)cc4C)CC3)C(=O)N2)CC1

>  <TARGET>
UniProt Q03431

>  <ASSIGNED_CATEGORY>
NO

$$$$
>  <COMPOUND>
CC(=O)Nc1ccc(CCS(=O)(=O)N2CCC3(CC2)N=C(C2CCC(C)CC2)NC3=O)c(OC(C)C)c1 (stereo not drawn)

>  <TARGET>
UniProt Q03431

>  <ASSIGNED_CATEGORY>
YES

$$$$
>  <COMPOUND>
Cc1cc(C(=O)N2CCC(O)(CF)CC2)ccc1CCS(=O)(=O)N1CCC2(CC1)N=C([C@H]1CC[C@H](CC=C(F)F)CC1)NC2=O

>  <TARGET>
UniProt Q03431

>  <ASSIGNED_CATEGORY>
YES

$$$$
>  <COMPOUND>
Cc1cc(C(=O)N2CCC(O)(CF)CC2)cc(C)c1/C=C/S(=O)(=O)N1CCC2(CC1)N=C(c1ccc(F)c(OCCCC(F)(F)C(F)(F)F)c1)NC2=O

>  <TARGET>
UniProt Q03431

>  <ASSIGNED_CATEGORY>
YES

$$$$

###

# TARGET: human PTH1 receptor (Homo sapiens, UniProt Q03431)
# Sequence (Q03431 27-593): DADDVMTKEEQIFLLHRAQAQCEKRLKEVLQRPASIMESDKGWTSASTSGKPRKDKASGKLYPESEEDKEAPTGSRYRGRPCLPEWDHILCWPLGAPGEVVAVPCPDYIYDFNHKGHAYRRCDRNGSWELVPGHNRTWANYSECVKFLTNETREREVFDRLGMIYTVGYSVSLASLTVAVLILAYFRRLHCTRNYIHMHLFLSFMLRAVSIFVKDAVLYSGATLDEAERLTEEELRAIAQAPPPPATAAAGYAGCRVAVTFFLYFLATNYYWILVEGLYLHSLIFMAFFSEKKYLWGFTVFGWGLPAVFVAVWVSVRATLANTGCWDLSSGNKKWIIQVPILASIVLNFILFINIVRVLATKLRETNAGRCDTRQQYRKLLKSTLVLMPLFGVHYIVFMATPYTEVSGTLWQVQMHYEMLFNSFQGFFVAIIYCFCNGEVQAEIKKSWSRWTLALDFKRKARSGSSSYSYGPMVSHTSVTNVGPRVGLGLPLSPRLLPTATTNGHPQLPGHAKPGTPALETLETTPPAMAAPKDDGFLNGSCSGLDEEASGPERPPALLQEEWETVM
# EXPERIMENTAL_DETAILS: In vitro cAMP signal activity in HKRK-B7 cells (LLC-PK1 cells overexpressing the human PTH1 receptor)
# Format: cell-based
# RECORDED_CONDITIONS: HKRK-B7 cells; compound at 1×10^−3 M; cAMP produced as percentage of that produced by hPTH(1-34) at 100 nM
Quick rule for you: cAMP production activity (%) at 70% or higher means true (1), lower means false (0).

>  <COMPOUND>
Cc1cc(N(C)C(N)=O)ccc1/C=C/S(=O)(=O)N1CCC2(CC1)N=C(c1cccc(OC(F)(F)F)c1)NC2=O

>  <ASSIGNED_CATEGORY>
true (1)

$$$$
>  <COMPOUND>
Cc1cc2ccc1CCS(=O)(=O)N1CCC3(CC1)N=C(NC3=O)c1cc(cc(C(F)(F)F)c1)OCCC=CCCCN(C)C2=O

>  <ASSIGNED_CATEGORY>
false (0)

$$$$
>  <COMPOUND>
Cc1cc(C(=O)N2CCC(C)(O)CC2)cc(C)c1/C=C/[S@TB4](=O)(=O)N1CCC2(CC1)N=C(c1ccc(C(F)(F)F)c(C(F)(F)F)c1)NC2=O

>  <ASSIGNED_CATEGORY>
true (1)

$$$$
>  <COMPOUND>
CC(=O)N(c1cc(C)c(/C=C/S(=O)(=O)N2CCC3(CC2)N=C(c2cccc(OC(F)(F)F)c2)NC3=O)c(C)c1)C1CCOCC1

>  <ASSIGNED_CATEGORY>
true (1)

$$$$
>  <COMPOUND>
Cc1cc(C(=O)N2CCCC2)ccc1CCS(=O)(=O)N1CCC2(CC1)N=C(c1cccc(C(F)(F)F)c1)NC2=O

>  <ASSIGNED_CATEGORY>
true (1)

$$$$
>  <COMPOUND>
O=C1NC(CCc2ccccc2)=NC12CCN(S(=O)(=O)c1cccc(Cl)c1)CC2

>  <ASSIGNED_CATEGORY>
false (0)

$$$$
>  <COMPOUND>
Cc1cc(N(C)C(N)=O)cc(C)c1CCS(=O)(=O)N1CCC2(CC1)N=C(c1ccc(OCCCC(F)(F)F)cc1)NC2=O

>  <ASSIGNED_CATEGORY>
true (1)

$$$$
>  <COMPOUND>
Cc1cc(N(C)C(N)=O)cc(C)c1/C=C/S(=O)(=O)N1CCC2(CC1)N=C(c1ccc(F)c(C(F)(F)F)c1)NC2=O

>  <ASSIGNED_CATEGORY>
true (1)

$$$$
>  <COMPOUND>
Cc1cc(N(C)C(N)=O)cc(C)c1/C=C/S(=O)(=O)N1CCC2(CC1)N=C(CCCCCCCCC(F)F)NC2=O

>  <ASSIGNED_CATEGORY>
false (0)

$$$$
>  <COMPOUND>
CO/N=C1\NC(c2cccc(OC(F)(F)F)c2)=NC12CCN(S(=O)(=O)CCc1ccc(C(=O)N(C)C)cc1C)CC2

>  <ASSIGNED_CATEGORY>
false (0)

$$$$
>  <COMPOUND>
CC1CCC(C2=NC3(CN(S(=O)(=O)CCc4cccc5ccccc45)C3)C(=O)N2)CC1 (stereo not shown)

>  <ASSIGNED_CATEGORY>
false (0)

$$$$

###

# TARGET: human PTH1 receptor (Homo sapiens)
# EXPERIMENTAL_DETAILS: In vitro cAMP signal activity in HKRK-B7 cells (LLC-PK1 cells overexpressing the human PTH1 receptor)
# Type: cell-based
# RECORDED_CONDITIONS: HKRK-B7 cells; compound at 1×10^−3 M; cAMP produced as percentage of that produced by hPTH(1-34) at 100 nM
Quick reference for cAMP production activity (%) among some compounds

>  <COMPOUND>
Cc1cc(C(=O)N2CC[C@H](O)C2)ccc1CCS(=O)(=O)N1CCC2(CC1)N=C(c1cccc(C(F)(F)F)c1)NC2=O

>  <cAMP production activity (%)>
66

$$$$
>  <COMPOUND>
Cc1cc(N(CCOCCO)C(N)=O)cc(C)c1CCS(=O)(=O)N1CCC2(CC1)N=C(C1CCC(CCC(F)(F)F)CC1)NC2=O (stereo not drawn)

>  <cAMP production activity (%)>
90

$$$$
>  <COMPOUND>
Cc1cc(C(=O)N2CCC(C)(O)CC2)cc(C)c1CCS(=O)(=O)N1CCC2(CC1)N=C(c1ccc(C(F)(F)F)c(Cl)c1)NC2=O

>  <cAMP production activity (%)>
99

$$$$
>  <COMPOUND>
Cc1cc(N2CCC(=O)NC2=O)cc(C)c1CCS(=O)(=O)N1CCC2(CC1)N=C(C1CCC(C)CC1)NC2=O (stereo not drawn)

>  <cAMP production activity (%)>
57

$$$$
>  <COMPOUND>
Cc1cc(C(=O)N2CCC(C)(O)CC2)cc(C)c1/C=C/S(=O)(=O)N1CCC2(CC1)N=C(c1ccc(F)c(C(F)F)c1)NC2=O

>  <cAMP production activity (%)>
68

$$$$
>  <COMPOUND>
Cc1cc(C(=O)N2CCC(C)(O)CC2)cc(C)c1/C=C/S(=O)(=O)N1CCC2(CC1)N=C(c1ccc(S(F)(F)(F)(F)F)cc1)NC2=O

>  <cAMP production activity (%)>
104

$$$$

###

Reported values of cAMP production activity (%) for individual entries
# TARGET: human PTH1 receptor (Homo sapiens, UniProt Q03431)
# EXPERIMENTAL_DETAILS: In vitro cAMP signal activity in HKRK-B7 cells (LLC-PK1 cells overexpressing the human PTH1 receptor)
# Format: cell-based
# RECORDED_CONDITIONS: HKRK-B7 cells; compound at 1×10^−3 M; cAMP produced as percentage of that produced by hPTH(1-34) at 100 nM

>  <COMPOUND>
Cc1cc(S(=O)(=O)NC2CCC(O)CC2)ccc1/C=C/S(=O)(=O)N1CCC2(CC1)N=C(c1cccc(C(F)(F)F)c1)NC2=O (stereo not shown)

>  <UOM>
%

>  <cAMP production activity (%)>
87

$$$$
>  <COMPOUND>
O=C1NC(C2CCC(CF)CC2)=NC12CCN(S(=O)(=O)c1cccc(Cl)c1)CC2 (stereo not shown)

>  <UOM>
%

>  <cAMP production activity (%)>
42

$$$$
>  <COMPOUND>
O=C(c1cccc(C2=NC3(CCN(S(=O)(=O)c4cccc(Cl)c4)CC3)C(=O)N2)c1)N1CCOCC1

>  <UOM>
%

>  <cAMP production activity (%)>
5.6

$$$$
>  <COMPOUND>
Cc1cc2ccc1CCS(=O)(=O)N1CCC3(CC1)N=C(NC3=O)c1cc(cc(C(F)(F)F)c1)OCC/C=C/COCCNC2=O

>  <UOM>
%

>  <cAMP production activity (%)>
5.4

$$$$
>  <COMPOUND>
CC1CCC(C2=NC3(CCN(S(=O)(=O)/C=C/c4cccc(C#N)c4)CC3)C(=O)N2)CC1 (stereo not shown)

>  <UOM>
%

>  <cAMP production activity (%)>
24

$$$$
>  <COMPOUND>
Cc1cc(C(=O)N2CC(O)C2)cc(C)c1/C=C/S(=O)(=O)N1CCC2(CC1)N=C(c1cccc(OC(F)(F)F)c1)NC2=O

>  <UOM>
%

>  <cAMP production activity (%)>
117

$$$$
>  <COMPOUND>
CCCOCCCCCC1=NC2(CCN(S(=O)(=O)CCc3c(C)cc(N(C)C(N)=O)cc3C)CC2)C(=O)N1

>  <UOM>
%

>  <cAMP production activity (%)>
78

$$$$
